This listing pairs binders with measured Kd.
Target: T1, Rhesus macaque CD4-HIS (Acro Biosystems, Cat. CD4-C52H7) (rhesus macaque, UniProt P16003 26-390)
T1 construct: Bought reagent; also called Rhesus CD4; rhesus CD4-HIS; not shown: His tag
T1 sequence (P16003 26-390 limits assumed): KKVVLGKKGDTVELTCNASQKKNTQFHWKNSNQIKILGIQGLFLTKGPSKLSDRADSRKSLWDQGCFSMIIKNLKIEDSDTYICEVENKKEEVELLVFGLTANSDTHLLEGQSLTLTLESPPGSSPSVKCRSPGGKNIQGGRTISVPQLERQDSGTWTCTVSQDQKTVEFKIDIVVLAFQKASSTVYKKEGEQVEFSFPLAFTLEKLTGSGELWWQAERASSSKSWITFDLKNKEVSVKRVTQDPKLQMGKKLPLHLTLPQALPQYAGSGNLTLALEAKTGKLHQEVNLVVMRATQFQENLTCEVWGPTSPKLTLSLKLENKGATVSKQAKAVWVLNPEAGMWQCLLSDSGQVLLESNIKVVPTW
Assay: BLI (Octet Red384); Ab on anti-mouse Fc (AMC) sensor; rhesus CD4-HIS 100/50/25 nM; global 1:1 fit;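 further: antibodies loaded at 10 µg/mL, an unrelated mouse-derived antibody served as internal reference, curves fit over association and dissociation phases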
Only the number, expressed in nM, is required.

Solved entries (count: 2):
binder	Kd [nM]
75110_07J02A (antibody, V domains shown, Tested as antibody purified from AlivaMab Mouse hybridoma supernatant (human variable domains, kappa; mouse Fc, captured on anti-mouse IgG Fc sensors); also called ADS75110 purified AMM Ab) VH: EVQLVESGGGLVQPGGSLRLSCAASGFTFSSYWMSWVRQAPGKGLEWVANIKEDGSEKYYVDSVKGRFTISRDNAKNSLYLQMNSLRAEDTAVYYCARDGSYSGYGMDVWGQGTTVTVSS VL: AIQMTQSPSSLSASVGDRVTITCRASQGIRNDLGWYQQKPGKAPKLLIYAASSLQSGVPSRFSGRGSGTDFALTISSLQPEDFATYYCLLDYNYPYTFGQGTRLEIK	18
75110_09N20A (antibody, V domains shown, Tested as antibody purified from AlivaMab Mouse hybridoma supernatant (human variable domains, kappa; mouse Fc, captured on anti-mouse IgG Fc sensors); also called ADS75110 purified AMM Ab) VH: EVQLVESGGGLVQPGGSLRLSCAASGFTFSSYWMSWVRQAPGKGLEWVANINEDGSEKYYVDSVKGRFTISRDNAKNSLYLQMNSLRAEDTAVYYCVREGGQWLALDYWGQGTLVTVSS VL: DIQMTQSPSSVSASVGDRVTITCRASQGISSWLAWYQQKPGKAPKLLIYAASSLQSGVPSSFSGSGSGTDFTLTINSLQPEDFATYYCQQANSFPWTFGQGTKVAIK	44

Consider the record given below.
Q) Which Kd is reported for this binder? 75110_07H07A (antibody, V domains shown, Tested as antibody purified from AlivaMab Mouse hybridoma supernatant (human variable domains, kappa; mouse Fc, captured on anti-mouse IgG Fc sensors); also called ADS75110 purified AMM Ab) VH: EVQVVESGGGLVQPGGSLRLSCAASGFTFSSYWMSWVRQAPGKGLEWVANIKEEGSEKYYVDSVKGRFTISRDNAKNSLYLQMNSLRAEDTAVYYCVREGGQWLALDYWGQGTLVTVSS VL: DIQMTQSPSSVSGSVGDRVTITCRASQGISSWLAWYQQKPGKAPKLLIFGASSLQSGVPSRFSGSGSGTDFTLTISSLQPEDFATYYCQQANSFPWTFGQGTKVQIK
A) 32
